Listed substances paired with reported IC50
# System: Human immunodeficiency virus 1
# test method notes: Antiviral activity against HIV1 098-T20 isolate infected in human PBMCs by reverse transcriptase assay
# Type: functional, organism-based
State the answer as a number, implicitly in µg/mL.

H-TTWEAWDRAIAEYAARIEALIRAAQELQEKNEAALREL-OH
0.035

// next item, IC50 requested
Request body: readout IC50, system Human immunodeficiency virus 1, query H-TTWEAWDRAIAEYAARIEALIRAAQEQQEKNEAILREL-OH . Return the value.
0.034

---

# Tested on: Human immunodeficiency virus 1
# test method notes: Antiviral activity against HIV1 098-T20 isolate infected in human PBMCs by reverse transcriptase assay
# Type: functional, organism-based
Category key, based on recorded IC50: category 1: < 0.03 µg/mL; category 2: ≥ 0.03 µg/mL and < 0.08 µg/mL; category 3: ≥ 0.08 µg/mL

Solved entries:
H-TTWEAWDRAIAEYAARIEALIRAAQEQQEKLEAVLREL-OH
category 3
H-TTWEEWDREINEYTSRIESLIRESQEQQEKNEQELREL-OH
category 2
H-TTWEAWDRAIAEYAARIEALIRALQEQQEKNEAALREL-OH
category 1
H-TTWEAWDRAIAEYAARIEALIRALQELQEKNEAALREL-OH
category 3
H-TTWEAWDRAIAEYAARIEALIRAAQEQQEKLEAALREL-OH
category 1

State the class of the substance shown: H-TTWEAWDRAIAEYAARIEALIRASQEQQEKNEAELREL-OH
category 1

State the class of the substance shown: H-TTWEAWDRAIAEYAARIEALIRAAQELQEKLEAALREL-OH
category 3

State the class of the substance shown: H-TTWEAWDRAIAEYAARIEALIRALQELQEKNEAILREL-OH
category 3

State the class of the substance shown: H-MTWEAWDRAIAEYAARIEALIRAAQEQQEKNEAALREL-OH
category 2

---

# Tested on: Human immunodeficiency virus 1
# test method notes: Binding affinity to HIV1 gp41 heptad repeat 1 region assessed as thermal stability of HR1/HR2 peptide bundle complex at 1 uM in presence of 8M urea
measure name: Tm (°C)
State the answer as a number, implicitly in °C.

Please review the entries below; each comes with its answer.
H-TTWEAWDRAIAEYAARIEALIRALQEQQEKNEAILREL-OH
85
H-TTWEAWDRAIAEYAARIEALIRALQELQEKNEAALREL-OH
82
H-TTWEAWDRAIAEYAARIEALIRAAQEQQEKLEAVLREL-OH
85
H-TTWEAWDRAIAEYAARIEALIRAAQELQEKNEAALREL-OH
89

Fill in the blank: the reported Tm of H-TTWEAWDRAIAEYAARIEALIRASQEQQEKNEAELREL-OH is ____.
78

Fill in the blank: the reported Tm of H-TTWEEWDREINEYTSRIESLIRESQEQQEKNEQELREL-OH is ____.
80

Fill in the blank: the reported Tm of H-TTWEAWDRAIAEYAARIEALIRAAQELQEKLEAALREL-OH is ____.
92

Fill in the blank: the reported Tm of H-TTWEAWDRAIAEYAARIEALIRAAQEQQEKLEAALREL-OH is ____.
86

---

# test method notes: Clearance in cynomolgus monkey at 1 to 2 mg/kg, iv
# Format: ADME, organism-based, Macaca fascicularis
# Parameters: dose 1-2 mg/kg, route intravenous
# details: in vivo
measure name: clearance (mL/min/kg)
State the answer as a number, implicitly in mL/min/kg.

H-TTWEAWDRAIAEYAARIEALIRAAQEQQEKLEAVLREL-OH
0.0667
H-TTWEAWDRAIAEYAARIEALIRAAQEQQEKNEAILREL-OH
1.1
H-TTWEAWDRAIAEYAARIEALIRALQELQEKNEAILREL-OH
0.15
H-TTWEAWDRAIAEYAARIEALIRAAQEQQEKLEAALREL-OH
0.15
H-TTWEAWDRAIAEYAARIEALIRASQEQQEKNEAELREL-OH
1.43

// next item, clearance requested
Fill in the blank: the reported clearance of H-TTWEAWDRAIAEYAARIEALIRALQELQEKLEAILREL-OH is ____.
0.05
